Biological target: UniProtKB P52333
Sequence (P52333 whole entry): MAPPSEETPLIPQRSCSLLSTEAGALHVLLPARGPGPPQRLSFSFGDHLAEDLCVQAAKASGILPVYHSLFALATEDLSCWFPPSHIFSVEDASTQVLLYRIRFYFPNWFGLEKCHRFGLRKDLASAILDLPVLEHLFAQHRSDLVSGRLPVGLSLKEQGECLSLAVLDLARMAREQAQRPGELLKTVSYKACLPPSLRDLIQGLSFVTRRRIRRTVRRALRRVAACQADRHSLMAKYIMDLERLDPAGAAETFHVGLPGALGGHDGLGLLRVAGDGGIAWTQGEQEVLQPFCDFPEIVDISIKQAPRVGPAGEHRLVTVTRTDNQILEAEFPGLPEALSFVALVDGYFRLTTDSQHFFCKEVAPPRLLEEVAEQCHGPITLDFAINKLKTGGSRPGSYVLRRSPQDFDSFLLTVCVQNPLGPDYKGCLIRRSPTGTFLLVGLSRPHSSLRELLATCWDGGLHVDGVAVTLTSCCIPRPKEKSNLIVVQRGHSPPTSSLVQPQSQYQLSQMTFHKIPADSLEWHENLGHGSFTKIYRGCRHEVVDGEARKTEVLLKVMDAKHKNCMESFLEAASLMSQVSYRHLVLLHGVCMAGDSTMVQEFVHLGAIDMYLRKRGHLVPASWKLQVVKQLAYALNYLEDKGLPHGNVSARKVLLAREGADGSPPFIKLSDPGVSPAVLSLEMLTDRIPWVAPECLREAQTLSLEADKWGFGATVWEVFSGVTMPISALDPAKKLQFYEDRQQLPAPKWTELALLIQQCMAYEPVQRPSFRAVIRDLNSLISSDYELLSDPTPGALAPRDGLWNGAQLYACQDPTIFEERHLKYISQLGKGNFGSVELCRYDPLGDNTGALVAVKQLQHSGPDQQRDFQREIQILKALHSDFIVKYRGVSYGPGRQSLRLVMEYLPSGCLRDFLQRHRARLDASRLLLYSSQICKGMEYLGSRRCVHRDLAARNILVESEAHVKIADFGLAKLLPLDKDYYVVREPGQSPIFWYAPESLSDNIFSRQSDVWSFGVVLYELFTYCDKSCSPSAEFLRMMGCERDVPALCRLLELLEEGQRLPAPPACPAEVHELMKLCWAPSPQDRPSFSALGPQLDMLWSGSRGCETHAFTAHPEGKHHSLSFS
Test: JAK3 Homogeneous Time Resolved Fluorescence (HTRF) Assay
Assay type: binding
Settings: selectivity for IRAK4 over JAK3
endpoint_name: Ratio of JAK3 IC50 to IRAK4 IC50

>>> print(df.to_string())
                            smiles_structure                     endpoint_name  endpoint_result
 0  CC(C)Nc1c(C(=O)NC[C@@H](F)C(C)(C)O)cnn2cc(-c3ccc(F)cc3)nc12  Ratio of JAK3 IC50 to IRAK4 IC50             >256
 1  CC(C)Nc1c(C(=O)NC[C@@H](F)C(C)(C)O)cnn2cc(-c3cccnc3F)nc12  Ratio of JAK3 IC50 to IRAK4 IC50            >1111
 2  CC(C)Nc1c(C(=O)N[C@H]2CC[C@H](NC(=O)CO)CC2)cnn2cc(-c3ccncc3F)cc12  Ratio of JAK3 IC50 to IRAK4 IC50            >7692
 3  CC(=O)N[C@H]1CC[C@H](NC(=O)c2cnn3cc(-c4ccncc4C)cc3c2NC(C)C)CC1  Ratio of JAK3 IC50 to IRAK4 IC50           >31250
 4  CC(C)Nc1c(C(=O)NC[C@@H](F)C(C)(C)O)cnc2cc(-c3cncc(C#N)c3)nn12  Ratio of JAK3 IC50 to IRAK4 IC50             >139
 5  CC(C)Nc1c(C(=O)NC[C@@H](F)C(C)(C)O)cnn2cc(-c3ccc(F)cc3)cc12  Ratio of JAK3 IC50 to IRAK4 IC50            >1724
 6  CC(C)Nc1c(C(=O)NC[C@@H](F)C(C)(C)O)cnn2cc(-c3ccc(C#N)nc3)nc12  Ratio of JAK3 IC50 to IRAK4 IC50             >714
 7  CC(=O)N1CCC(NC(=O)c2cnn3cc(-c4ccncc4F)nc3c2NC(C)C)CC1  Ratio of JAK3 IC50 to IRAK4 IC50             >909
 8  CC(C)Nc1c(C(=O)N[C@H]2CC[C@H](C(N)=O)CC2)cnn2cc(-c3ccncc3F)cc12  Ratio of JAK3 IC50 to IRAK4 IC50           >13158
 9  COC(=O)c1cncc(-c2cc3ncc(C(=O)NC[C@@H](F)C(C)(C)O)c(NC(C)C)n3n2)c1  Ratio of JAK3 IC50 to IRAK4 IC50             >238
10  CC(C)Nc1c(C(=O)NC[C@@H](F)C(C)(C)O)cnc2cc(C3CC3)nn12  Ratio of JAK3 IC50 to IRAK4 IC50             >119
11  CC(C)Nc1c(C(=O)NC[C@@H](F)C(C)(C)O)cnn2cc(-c3ccnc(N4CCOCC4)c3F)cc12  Ratio of JAK3 IC50 to IRAK4 IC50             ~500
12  CC(C)Nc1c(C(=O)NC[C@@H](F)C(C)(C)O)cnn2cc(Nc3ccc(C#N)cn3)cc12  Ratio of JAK3 IC50 to IRAK4 IC50             >208
13  Cc1ncccc1-c1cc2ncc(C(=O)NC[C@@H](F)C(C)(C)O)c(NC(C)C)n2n1  Ratio of JAK3 IC50 to IRAK4 IC50             >217
14  CC(C)Nc1c(C(=O)NC[C@@H](F)C(C)(C)O)cnn2cc(-c3cncnc3)cc12  Ratio of JAK3 IC50 to IRAK4 IC50            >2632
15  Cc1cc(F)ncc1-c1cc2c(NC(C)C)c(C(=O)N[C@H]3CC[C@H](C(=O)N4CCOCC4)CC3)cnn2c1  Ratio of JAK3 IC50 to IRAK4 IC50            ~2130

Values were extracted from patent US12570659B2.
